Molecular target: Cytochrome P450 2C19 (Homo sapiens) (UniProt P33261)
Sequence (P33261 whole entry, looked up): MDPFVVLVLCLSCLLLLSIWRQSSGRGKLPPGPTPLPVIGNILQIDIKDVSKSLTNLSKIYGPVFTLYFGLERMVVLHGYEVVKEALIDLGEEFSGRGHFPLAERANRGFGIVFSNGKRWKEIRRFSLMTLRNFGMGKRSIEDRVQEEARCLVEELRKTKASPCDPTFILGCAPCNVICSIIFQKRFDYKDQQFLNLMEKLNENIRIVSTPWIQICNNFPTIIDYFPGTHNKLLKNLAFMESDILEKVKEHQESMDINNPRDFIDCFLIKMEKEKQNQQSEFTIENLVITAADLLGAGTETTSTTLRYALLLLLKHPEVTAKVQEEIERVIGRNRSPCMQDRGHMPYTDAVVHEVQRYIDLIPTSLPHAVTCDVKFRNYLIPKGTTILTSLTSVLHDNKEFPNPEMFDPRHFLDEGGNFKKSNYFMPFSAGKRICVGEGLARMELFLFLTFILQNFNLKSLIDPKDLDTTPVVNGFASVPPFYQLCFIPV
Test: Cytochrome panel assay with activity outcomes; as to activity, negative = inhibition: % is scaled to controls: 0 for no effect and ±100 for the full control effect
Conditions: recombinant CYP, pro-luciferin dealkylation, luminescence, p450-cyp2c19; series mostly up to 57.1 µM
The campaign covered roughly 16,000 compounds. About 5,800 (36%) were called active. About 23% were inconclusive and are not listed. This is one part of the list.
measuredMetric: activity, negative = inhibition

Record summary for `Cc1ccc(S(=O)(=O)N[C@H]2COC(=O)[C@@H](Cc3ccccc3)NC(=O)[C@@H](C)COC(=O)C/C=C\[C@@H]2C)cc1` : reported activity, negative = inhibition = 32% [at 11.4 µM] (inactive)

Record summary for `CO[C@H]1COC(=O)C/C=C\[C@H](C)COC(=O)[C@@H](C)NC(=O)C/C=C\[C@@H]1C` : reported activity, negative = inhibition = -31.5% [at 11.4 µM] (inactive)

Record summary for `CO[C@H]1COC(=O)[C@H](C)COC(=O)C/C=C\[C@@H](C)[C@H](OC)COC(=O)C/C=C\[C@@H]1C` : reported activity, negative = inhibition = -42.3% [at 11.4 µM] (inactive)

Record summary for `O=C(N/N=C1/C[C@@H](O)[C@@H](O)[C@@H]2[C@@H]3C(=O)N(Cc4ccccc4)C(=O)[C@H]3CC[C@@H]12)OCc1ccccc1` : reported activity, negative = inhibition = 9.42% [at 11.4 µM] (inactive)

Record summary for `[Cu].[O-]/N=C1/C(=[OH+])Nc2ccccc21.[O-]Nc1c(O)[nH]c2ccccc12` : reported activity, negative = inhibition = 2.58% [at 11.4 µM] (inactive)

Record summary for `COc1cccc(CSCC(=O)O)c1` : reported activity, negative = inhibition = -7.72% [at 11.4 µM] (inactive)

Record summary for `CC(=O)N[C@@H]1CONC1=O` : reported activity, negative = inhibition = 21.6% [at 11.4 µM] (inactive)

Record summary for `COC(=O)C/C=C\[C@@H](C)[C@@H](/C=N\OC[C@@H](O)COCc1ccco1)NS(=O)(=O)c1ccc(C)cc1` : reported activity, negative = inhibition = -9.48% [at 11.4 µM] (inactive)

----------
Molecular target: Cytochrome P450 2C19 (Homo sapiens) (UniProt P33261)
Test: Cytochrome panel assay with activity outcomes
Details: recombinant CYP, pro-luciferin dealkylation, luminescence, p450-cyp2c19; series mostly up to 57.1 µM
Screen size: about 16,000 compounds; about 5,800 (36%) were called active. About 23% were inconclusive and are not listed. The call rests on the fitted dose curve; in most records, active means well fitted curve in the direction sought with a large enough effect; inconclusive means small, poorly fitted or top-dose-only effect, or effect the other way; inactive means no such curve, though single readings can be large or run the other way. Some of the results follow.
Pick from true = active, false = inactive when you respond.

INPUT: # lookup: test call for `COc1ccc(Cc2nnc(NC(=O)c3ccco3)s2)cc1`
OUTPUT: true

INPUT: # lookup: test call for `Nc1nnc(C(c2ccccc2)c2ccccc2)s1`
OUTPUT: true

INPUT: # lookup: test call for `COC(=O)[C@@]1(Cc2ccc(F)cc2)[C@H]2c3cc(C(=O)N(C)C)n(Cc4ccc(C)o4)c3C[C@H]2CN1C(=O)c1ccccc1`
OUTPUT: true

INPUT: # lookup: test call for `COC(=O)[C@@]1(Cc2ccc(F)cc2)[C@H]2c3cc(C(=O)N4CCCC4)n(Cc4ccc(OC(F)(F)F)cc4)c3C[C@H]2CN1C(=O)c1ccccc1`
OUTPUT: false

INPUT: # lookup: test call for `COc1ccc2c(c1)CCc1sc(NC(=O)c3ccc(C)cc3)nc1-2`
OUTPUT: true

INPUT: # lookup: test call for `Cc1cc(OCc2nc(N)nc(N)c2-c2ccc(Cl)c(Cl)c2)ccc1[N+](=O)[O-]`
OUTPUT: true

INPUT: # lookup: test call for `COc1ccc(Cc2nnc(NC(=O)c3cccc([N+](=O)[O-])c3C)s2)cc1`
OUTPUT: false

INPUT: # lookup: test call for `O=C1CCCCC(=O)c2ccccc2N1`
OUTPUT: false

INPUT: # lookup: test call for Cc1ccc2c(c1)NCC(C(=O)NC1CCCCC1)O2 (stereo unspecified)
OUTPUT: true

INPUT: # lookup: test call for O=C(NCC1CCCO1)c1nn2c(c1Cl)NC(c1ccc(F)cc1)CC2C(F)(F)F (stereo unspecified)
OUTPUT: false

INPUT: # lookup: test call for `COC(=O)[C@@]1(Cc2ccc(F)cc2)[C@H]2c3cc(C(=O)N(C)C)n(Cc4ccc(C)c(F)c4F)c3C[C@H]2CN1C(=O)c1ccccc1`
OUTPUT: true

INPUT: # lookup: test call for CCCc1cc2c(n1CCc1ccc(Cl)cc1)C(C)C1CN(C(=O)c3ccccc3)C(C)(C(=O)OC)C21 (stereo unspecified)
OUTPUT: true

INPUT: # lookup: test call for `O=C(CCN1C(=O)c2ccccc2C1=O)NC(=S)Nc1cccc(Cl)c1`
OUTPUT: true

INPUT: # lookup: test call for `O=C(O)c1ccc(Sc2nnnn2-c2ccccc2)c([N+](=O)[O-])c1`
OUTPUT: false

INPUT: # lookup: test call for `O=c1c(-c2ccccc2)nc2cnc(N3CCNCC3)nc2n1-c1ccccc1`
OUTPUT: false

INPUT: # lookup: test call for `COc1ccccc1CN1CCCC2(CCN(C(C)=O)CC2)C1`
OUTPUT: false

meta.source: PubChem BioAssay AID1851
